Target: Protein kinase C alpha type (Homo sapiens, UniProt P17252)
Assay: Inhibition of human recombinant PKCalpha
Returns: string. Value is yes (1) if measured IC50 is below 4 µM, and no (0) if it is greater than or equal to it.

| MOLECULE | TARGET_OF_ASSAY | QUALITATIVE_LABEL |
| --- | --- | --- |
| OC[C@H]1O[C@@H](O[C@H](CCCCc2ccc(O)c(O)c2)CCc2ccc(O)c(O)c2)[C@H](O)[C@@H](O)[C@@H]1O | Protein kinase C alpha type (Homo sapiens, UniProt P17252) | yes (1) |
| Oc1ccc(CCCC[C@@H](O)CCc2ccc(O)c(O)c2)cc1O | Protein kinase C alpha type (Homo sapiens, UniProt P17252) | no (0) |
| O=C(CCc1ccc(O)c(O)c1)C[C@@H](O)CCc1ccc(O)c(O)c1 [HIRSUTANONOL] | Protein kinase C alpha type (Homo sapiens, UniProt P17252) | no (0) |
| O=C(CCc1ccc(O)c(O)c1)C[C@H](CCc1ccc(O)c(O)c1)O[C@@H]1OC[C@@H](O)[C@H](O)[C@H]1O [OREGONIN] | Protein kinase C alpha type (Homo sapiens, UniProt P17252) | no (0) |
| O=C(/C=C/CCc1ccc(O)c(O)c1)CCc1ccc(O)c(O)c1 [DEHYDROHIRSUTANONOL] | Protein kinase C alpha type (Homo sapiens, UniProt P17252) | no (0) |
